This collection of values is drawn from patent US4954488A.

# collection of IC50 values tested on enzymes in the synthesis of aldosterone (Rattus norvegicus, UniProt P30099)
# Sequence (P30099 35-510): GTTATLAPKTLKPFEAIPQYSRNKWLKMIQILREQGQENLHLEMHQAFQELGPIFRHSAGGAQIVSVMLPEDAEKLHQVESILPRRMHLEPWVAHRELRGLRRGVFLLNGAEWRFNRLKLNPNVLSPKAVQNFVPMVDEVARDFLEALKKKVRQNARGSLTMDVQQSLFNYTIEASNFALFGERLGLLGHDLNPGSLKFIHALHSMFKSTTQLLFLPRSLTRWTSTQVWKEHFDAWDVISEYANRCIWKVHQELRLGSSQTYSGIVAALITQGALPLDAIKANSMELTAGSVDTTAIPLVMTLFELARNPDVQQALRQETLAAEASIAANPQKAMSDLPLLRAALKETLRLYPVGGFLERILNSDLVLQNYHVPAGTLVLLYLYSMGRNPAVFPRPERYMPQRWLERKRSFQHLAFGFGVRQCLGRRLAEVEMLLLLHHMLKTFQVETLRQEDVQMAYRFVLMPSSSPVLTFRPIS

compound | result unit | IC50
CN(C1CC1)[C@H]1CC[C@H]2[C@@H]3CC=C4C[C@@H](O)CC[C@]4(C)[C@H]3CC[C@]12C | µM | 0.35
C[C@]12CC[C@H]3[C@@H](CCC4=CC(=O)CC[C@@]43C)[C@@H]1CC[C@@H]2NC1CC1 [17β-(Cyclopropylamino)androst-4-en-3-one] | µM | 0.18
CN(C1CC1)[C@H]1CC[C@H]2[C@@H]3CCC4=CC(=O)CC[C@]4(C)[C@H]3CC[C@]12C | µM | 0.13
C[C@]12CC[C@H]3[C@@H](CC=C4C[C@@H](O)CC[C@@]43C)[C@@H]1CC[C@@H]2NC1CC1 [17β-(Cyclopropylamino)androst-5-en-3β-ol] | µM | 1.1
